test system: A549/ATCC NSCLC; assay: NCI-60 one-dose screen, 48 h (100 = growth as untreated, 0 = no growth, -100 = all killed); details: 10 µM
This is part of a sample that, as a whole, favours compounds with a hit. Of some 83,000 tested, about 20% had one in any assay.
Response field label takes satisfied when growth is strictly below 30% and not satisfied in all other cases.

Q: Check if growth falls below 30% for Cc1nc2n(c(=O)c1CCN1CCC(c3noc4cc(F)ccc34)CC1)CCC[C@@H]2O .
A: not satisfied

Q: Check if growth falls below 30% for CCOc1ccccc1/C=N\N=C\c1ccccc1O .
A: not satisfied

Q: Check if growth falls below 30% for O=C1C=C(Nc2cccc(Br)c2)c2ccccc2C1=O .
A: satisfied

Q: Check if growth falls below 30% for CC(=O)N[C@H](C(=O)N[C@@H](CCCNC(=N)N)C(=O)N[C@@H](CCCCN)C(=O)N[C@@H](CCCNC(=N)N)C(=O)N[C@]1(C)CCC/C=C\CCC[C@@](C)(C(=O)N[C@@H](CC(C)C)C(=O)N[C@@H](CC(C)C)C(=O)N[C@@H](CCC(N)=O)C(=O)N[C@@H](CCC(=O)O)C(=O)N[C@@H](CCCNC(=N)N)C(=O)N[C@@H](CCC(=O)O)C(=O)N[C@@H](CC(C)C)C(=O)N[C@H](C(=O)N[C@@H](CCC(=O)O)C(N)=O)C(C)C)NC(=O)[C@H](CCCNC(=N)N)NC(=O)[C@H](CC(C)C)NC1=O)C(C)C .
A: not satisfied

Further cases:
Q: Check if growth falls below 30% for N#Cc1c(-c2ccc(Cl)cc2)n(O)c2ccccc12 .
A: satisfied

Q: Check if growth falls below 30% for COC(=O)CC[C@@H](C)[C@H]1CC[C@H]2[C@@H]3CC[C@@H]4C[C@H](O)CC[C@]4(C)[C@H]3C[C@H](O)[C@]12C .
A: not satisfied

Q: Check if growth falls below 30% for COc1cc(C2CC(c3cc(Cl)c(C)cc3O)=NN2c2ccc(S(N)(=O)=O)cc2)cc(OC)c1OC (configuration not stated) .
A: satisfied
